Molecular target: T1, recombinant human TIGIT (human, UniProt Q495A1 22-141, limits assumed)
T1 construct: recombinant human TIGIT used in Carterra SPR; also called hTIGIT
T1 sequence (looked up): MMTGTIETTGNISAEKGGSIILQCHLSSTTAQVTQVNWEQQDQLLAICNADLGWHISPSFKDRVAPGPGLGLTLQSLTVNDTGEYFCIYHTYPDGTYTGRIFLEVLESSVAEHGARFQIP
Experiment: SPR Carterra, average
The entries below are paired with their reported kon.
# number only, unit M⁻¹ s⁻¹ dropped from output

# example entries with known answers
TIGIT-SC58 (Fc fusion, VHH-Fc fusion in assay) VHH: EVQLVESGGGLVQPGGSLRLSCAASGFTLGYYVMGWFRQAPGKEREFVATINWSGTLTSYADSVKGRFTISADNSKNTAYLQMNSLKPEDTAVYYCARWVGPKYYFDYWGQGTLVTVSS; 860000
TIGIT-SC47 (Fc fusion, VHH-Fc fusion in assay) VHH: EVQLVESGGGLVQPGGSLRLSCAASGRALNMYVMGWFRQAPGKERELVAAIDWSGGSALYADSVKGRFTISADNSKNTAYLQMNSLKPEDTAVYYCASGDGYSMDYFDPWGQGTLVTVSS; 48900
TIGIT-SC212 (Fc fusion, VHH-Fc fusion in assay) VHH: EVQLVESGGGLVQPGGSLRLSCAASGFLFDSYAMGWFRQAPGKEREFVAAIWRSGTLKAYADSVKGRFTISADNSKNTAYLQMNSLKPEDTAVYYCARWVGASGDYWIDYWGQGTLVTVSS; 74100
TIGIT-SC37 (Fc fusion, VHH-Fc fusion in assay) VHH: EVQLVESGGGLVQPGGSLRLSCAASGNTFSGGFMGWFRQAPGKEREWVASVLRGGYTWYADSVKGRFTISADNSKNTAYLQMNSLKPEDTAVYYCVFGGVWQDVWGQGTLVTVSS; 214000
TIGIT-SC7 (Fc fusion, VHH-Fc fusion in assay) VHH: EVQLVESGGGLVQPGGSLRLSCAASGRSFSMYVMGWFRQAPGKEREGVSFISGSDGSTLYADSVKGRFTISADNSKNTAYLQMNSLKPEDTAVYYCARGSIAARPVFFDYWGQGTLVTVSS; 306000

Recorded kon of TIGIT-SC149 (Fc fusion, VHH-Fc fusion in assay) VHH: EVQLVESGGGLVQPGGSLRLSCAASGFTLENNMMGWFRQAPGKEREFVAAISRSGTLKAYADSVKGRFTISADNSKNTAYLQMNSLKPEDTAVYYCAKVQGPYCSGGSCYLYTFDLWGQGTLVTVSS , please. 123000

Recorded kon of TIGIT-SC171 (Fc fusion, VHH-Fc fusion in assay) VHH: EVQLVESGGGLVQPGGSLRLSCAASGFTFDRSWMGWFRQAPGKEREWVASVLRGGYTWYADSVKGRFTISADNSKNTAYLQMNSLKPEDTAVYYCATERRLGVWGQGTLVTVSS , please. 90200

Recorded kon of TIGIT-SC89 (Fc fusion, VHH-Fc fusion in assay) VHH: EVQLVESGGGLVQPGGSLRLSCAASGSMSSINAMGWFRQAPGKEREFVAAINYEGDRTYYADSVKGRFTISADNSKNTAYLQMNSLKPEDTAVYYCARWTRGLVSGTYYYYMDVWGQGTLVTVSS , please. 106000
